assay: Inhibition of NS5A in HCV genotype 1a assessed as decrease in viral replication
Quick list: log10(EC50) per entry.
// do not treat as linear: log10 of EC50, unit pM

// query # lookup: log10(EC50) of `COC(=O)N[C@H](C(=O)N1CCC[C@H]1c1ncc(-c2ccc3c(c2)Oc2ccc4cc(-c5cnc([C@@H]6CCCN6C(=O)[C@@H](NC(=O)OC)C(C)C)[nH]5)ccc4c2[C@H]3C)[nH]1)C(C)C`
// result 0.34

// query # lookup: log10(EC50) of `CC[C@H]1c2ccc(-c3cnc([C@@H]4CCCN4C(=O)[C@@H](NC(=O)OC)C4CCOCC4)[nH]3)cc2Oc2ccc3cc(-c4cnc([C@@H]5CCCN5C[C@@H](NC(=O)OC)C5CCOCC5)[nH]4)ccc3c21`
// result 0.60

// query # lookup: log10(EC50) of CCC1c2ccc(-c3cnc([C@@H]4CCCN4C(=O)[C@@H](NC(=O)OC)C(C)C)[nH]3)cc2Oc2ccc(-c3cnc([C@@H]4CCCN4C(=O)[C@@H](NC(=O)OC)C(C)C)[nH]3)cc21 (stereo not given in full)
// result 1.30

// query # lookup: log10(EC50) of `COC(=O)N[C@H](C(=O)N1CCC[C@H]1c1ncc(-c2ccc3c(c2)Oc2ccc4cc(-c5cnc([C@@H]6CCCN6C(=O)[C@@H](NC(=O)OC)C(C)C)[nH]5)ccc4c2C3(C)C)[nH]1)C(C)C`
// result 0.46
